# EXPERIMENTAL_DETAILS: Pharmacokinetics after oral administration to control, G-ARF and C-ARF rats
# Type: in vivo, Sprague–Dawley rats
# COND: Sprague-Dawley, rat, plasma, po, 20 mg/kg, control rats
EXPERIMENTAL_ENDPOINT: Tmax (h)
Write down the numeric answer in h and omit the unit.

Per the record, C[C@@H]1CCN(C(=O)CC#N)C[C@@H]1N(C)c1ncnc2[nH]ccc12 has Tmax of 1.2

* * *

# EXPERIMENTAL_DETAILS: Pharmacokinetics after oral administration to control, G-ARF and C-ARF rats
# Type: in vivo, Sprague–Dawley rats
# COND: Sprague-Dawley, rat, plasma, po, 20 mg/kg, C-ARF rats
EXPERIMENTAL_ENDPOINT: Tmax
Kindly write the number and append the unit.

Per the record, C[C@@H]1CCN(C(=O)CC#N)C[C@@H]1N(C)c1ncnc2[nH]ccc12 has Tmax of 41.3 min
